Where do these numbers come from? They come from patent US20250177324A1.

# Measurement Description: In vivo pharmacokinetic experiments in beagle dogs
# Measurement Setup: male, plasma, po; beagle dog, 5 mg/kg P.O.
Quantity: half-life (h)
Quick reminder: number only, in h, skip the unit.

Kindly note the recorded half-life for CN[C@@]1(c2ccc(C(F)(F)F)cc2)CCC[C@](C)(O)C1=O.Cl , which is 2.33

* * *

# Measurement Description: Solid-state chemical stability under different storage conditions (liquid chromatography)
# Format: physicochemical
# Measurement Setup: 40° C., 75% RH; 10 days
Quantity: Stability of solid state compound, 10 Days (%)
Quick reminder: number only, in %, skip the unit.

Kindly note the recorded Stability of solid state compound, 10 Days (%) for CN[C@@]1(c2ccccc2Cl)CCC[C@](C)(O)C1=O.Cl , which is 98.43

Kindly note the recorded Stability of solid state compound, 10 Days (%) for C[C@]1(O)CCC[C@@](N)(c2ccc(C(F)(F)F)cc2)C1=O.Cl , which is 99.23

Kindly note the recorded Stability of solid state compound, 10 Days (%) for Cl.N[C@]1(c2ccc(C(F)(F)F)cc2)CCC[C@H](O)C1=O [Comparative compound 2, reference compound] , which is 97.11

Kindly note the recorded Stability of solid state compound, 10 Days (%) for CN(C)[C@@]1(c2ccc(C(F)(F)F)cc2)CCC[C@@](C)(O)C1=O.Cl , which is 99.62

Kindly note the recorded Stability of solid state compound, 10 Days (%) for CN[C@]1(c2ccc(C(F)(F)F)cc2)CCC[C@@](C)(O)C1=O.Cl , which is 99.78

* * *

# Tested on: C57 mice
# Measurement Description: Forced swim test of oral administration in mice (antidepressant activity)
# Format: in vivo
# Measurement Setup: Mus musculus, po; reduction of immobility time vs blank group; single gavage 20 mg/kg, test 1 h after dosing; read-out: 1 h inhibition (%)
Please provide measured inhibition in vivo at 20 mg/kg for the entries that follow.
Quick reminder: number only, in %, skip the unit.

Kindly note the recorded inhibition in vivo at 20 mg/kg for Cl.N[C@@]1(c2ccc(C(F)(F)F)cc2)CCC[C@@H](O)C1=O [Comparative compound 1, reference compound] , which is 30.6

Kindly note the recorded inhibition in vivo at 20 mg/kg for CC1(C)C[C@@H](O)C(=O)[C@](N)(c2ccccc2Cl)C1 [Comparative compound 6, reference compound] , which is 18.2

Kindly note the recorded inhibition in vivo at 20 mg/kg for N[C@@]1(c2ccccc2Cl)CC2(CC2)C[C@@H](O)C1=O [Comparative compound 5, reference compound] , which is 22.8

Kindly note the recorded inhibition in vivo at 20 mg/kg for CC1(C)CC[C@@](N)(c2ccccc2Cl)C(=O)[C@@H]1O [Comparative compound 4, reference compound] , which is 2.9

Kindly note the recorded inhibition in vivo at 20 mg/kg for CN[C@@]1(c2ccc(C(F)(F)F)cc2)CCC[C@](C)(O)C1=O.Cl [Compound 73, hydrochloride] , which is 68.7

Kindly note the recorded inhibition in vivo at 20 mg/kg for CCN[C@@]1(c2ccc(C(F)(F)F)cc2)CCC[C@](C)(O)C1=O.Cl [Compound 77, hydrochloride] , which is 69.8

Kindly note the recorded inhibition in vivo at 20 mg/kg for C[C@@]1(O)CCC[C@@](N)(c2ccc(C(F)(F)F)cc2)C1=O.Cl [Compound 52, hydrochloride] , which is 29.5

Kindly note the recorded inhibition in vivo at 20 mg/kg for CNC1(c2cccc(F)c2F)CCCC(C)(O)C1=O.Cl (centres unmarked) [Compound 65, hydrochloride] , which is 26.4
